The following are reported GI50 results, target or system MDA-MB-435.

Example entries and their recorded answers appear below.
INSERT INTO assay_data (compound, measured_attribute, measured_result) VALUES
  ('CC1=C(C(=O)Nc2ccc(F)c(Cl)c2)C(c2cccc(Oc3ccccc3)c2)NC(=O)N1 (stereo unspecified)', 'GI50', '18800 nM'),
  ('N#C[S-].[Au+].c1ccc(CN2[CH-]N(Cc3ccccc3)C(c3ccccc3)=C2c2ccccc2)cc1', 'GI50', '492 nM'),
  ('OC(CNc1ccnc2cc(Cl)ccc12)CNC1CCCCC1 (stereo unspecified)', 'GI50', '1700 nM');

Query string: Which GI50 reading was recorded for the compound CC1/C(=N/Nc2ccc([N+](=O)[O-])cc2)CC2C3(C)CCC2(C(C)C(=O)O)C(=O)C13 (stereo unspecified) ?
Result string: 27400 nM

Query string: Given the compound COc1cccc2c(=O)c3c(sc12)c(NCCN(C)C)nc1ccccc13 , what is its reported GI50?
Result string: 1710 nM

Query string: Query (compound): CN(C)CCNC(=O)c1cc2c3ccccc3[nH]c2c2ncccc12 ; field requested: GI50
Result string: 2890 nM
